IC50 for assorted compounds
System: HepG2
Assay: Cytotoxicity against human HepG2 cells after 48 hrs by MTT assay
Type: functional, cell-based
Details: HepG2, 48 h
Write it as a number; the unit µM goes unstated.

C[C@H]1[C@H](C)CC[C@]2(C(=O)NCCN)CC[C@]3(C)C(=CC[C@@H]4[C@@]5(C)CC[C@H](O)C(C)(C)[C@@H]5CC[C@]43C)[C@H]12; 21.3
CC(=O)O[C@H]1CC[C@]2(C)[C@H]3CC=C4[C@@H]5[C@@H](C)[C@H](C)CC[C@]5(C(=O)NCCNC(=O)CN)CC[C@@]4(C)[C@]3(C)CC[C@H]2C1(C)C; 15.5
C[C@H]1[C@H](C)CC[C@]2(C(=O)O)CC[C@]3(C)C(=CC[C@@H]4[C@@]5(C)CC[C@H](O)C(C)(C)[C@@H]5CC[C@]43C)[C@H]12; 53.4

What does the data say about its IC50? Entry: CSCC[C@H](N)C(=O)NCCNC(=O)[C@]12CC[C@@H](C)[C@H](C)[C@H]1C1=CC[C@@H]3[C@@]4(C)CC[C@H](O)C(C)(C)[C@@H]4CC[C@@]3(C)[C@]1(C)CC2 16

What does the data say about its IC50? Entry: CC(=O)O[C@H]1C(=O)[C@@]2(C)[C@H]([C@H](OC(=O)c3ccccc3)[C@]3(O)C[C@H](OC(=O)[C@H](O)[C@@H](NC(=O)c4ccccc4)c4ccccc4)C(C)=C1C3(C)C)[C@]1(OC(C)=O)CO[C@@H]1C[C@@H]2O 30.7

What does the data say about its IC50? Entry: CC(=O)O[C@H]1CC[C@]2(C)[C@H]3CC=C4[C@@H]5[C@@H](C)[C@H](C)CC[C@]5(C(=O)NCCN)CC[C@@]4(C)[C@]3(C)CC[C@H]2C1(C)C 12.4

====

Test system: PC-3
Experiment: Cytotoxicity against human PC3 cells after 48 hrs by MTT assay
Format: functional, cell-based
Details: PC-3, 48 h
metricName: IC50

In the examples that follow, each entry is paired with its recorded IC50.
C[C@H]1[C@H](C)CC[C@]2(C(=O)NCCNC(=O)CN)CC[C@]3(C)C(=CC[C@@H]4[C@@]5(C)CC[C@H](O)C(C)(C)[C@@H]5CC[C@]43C)[C@H]12; 19.6 µM
CC(=O)O[C@H]1CC[C@]2(C)[C@H]3CC=C4[C@@H]5[C@@H](C)[C@H](C)CC[C@]5(C(=O)NCCNC(=O)[C@@H](N)Cc5ccccc5)CC[C@@]4(C)[C@]3(C)CC[C@H]2C1(C)C; < 10 µM
C[C@H]1[C@H](C)CC[C@]2(C(=O)NCCNC(=O)[C@@H](N)Cc3ccccc3)CC[C@]3(C)C(=CC[C@@H]4[C@@]5(C)CC[C@H](O)C(C)(C)[C@@H]5CC[C@]43C)[C@H]12; < 10 µM
CC(=O)O[C@H]1C(=O)[C@@]2(C)[C@H]([C@H](OC(=O)c3ccccc3)[C@]3(O)C[C@H](OC(=O)[C@H](O)[C@@H](NC(=O)c4ccccc4)c4ccccc4)C(C)=C1C3(C)C)[C@]1(OC(C)=O)CO[C@@H]1C[C@@H]2O [PACLITAXEL]; 57.2 µM
CSCC[C@H](N)C(=O)NCCNC(=O)[C@]12CC[C@@H](C)[C@H](C)[C@H]1C1=CC[C@@H]3[C@@]4(C)CC[C@H](OC(C)=O)C(C)(C)[C@@H]4CC[C@@]3(C)[C@]1(C)CC2; < 10 µM

What does the data say about its IC50? Entry: C[C@H]1[C@H](C)CC[C@]2(C(=O)NC(CCC(=O)O)C(=O)O)CC[C@]3(C)C(=CC[C@@H]4[C@@]5(C)CC[C@H](O)C(C)(C)[C@@H]5CC[C@]43C)[C@H]12 (some centres not stated) > 100 µM

What does the data say about its IC50? Entry: CC(=O)O[C@H]1CC[C@]2(C)[C@H]3CC=C4[C@@H]5[C@@H](C)[C@H](C)CC[C@]5(C(=O)NCCNC(=O)CN)CC[C@@]4(C)[C@]3(C)CC[C@H]2C1(C)C 14.3 µM

What does the data say about its IC50? Entry: CC(=O)O[C@H]1CC[C@]2(C)[C@H]3CC=C4[C@@H]5[C@@H](C)[C@H](C)CC[C@]5(C(=O)NCCN)CC[C@@]4(C)[C@]3(C)CC[C@H]2C1(C)C < 10 µM

What does the data say about its IC50? Entry: C[C@H]1[C@H](C)CC[C@]2(C(=O)NCCN)CC[C@]3(C)C(=CC[C@@H]4[C@@]5(C)CC[C@H](O)C(C)(C)[C@@H]5CC[C@]43C)[C@H]12 < 10 µM

What does the data say about its IC50? Entry: CSCC[C@H](N)C(=O)NCCNC(=O)[C@]12CC[C@@H](C)[C@H](C)[C@H]1C1=CC[C@@H]3[C@@]4(C)CC[C@H](O)C(C)(C)[C@@H]4CC[C@@]3(C)[C@]1(C)CC2 < 10 µM

What does the data say about its IC50? Entry: C[C@H]1[C@H](C)CC[C@]2(C(=O)NC(CC(=O)O)C(=O)O)CC[C@]3(C)C(=CC[C@@H]4[C@@]5(C)CC[C@H](O)C(C)(C)[C@@H]5CC[C@]43C)[C@H]12 (some centres not stated) > 100 µM

What does the data say about its IC50? Entry: C[C@H]1[C@H](C)CC[C@]2(C(=O)O)CC[C@]3(C)C(=CC[C@@H]4[C@@]5(C)CC[C@H](O)C(C)(C)[C@@H]5CC[C@]43C)[C@H]12 [URSOLIC ACID] 22.3 µM

====

pIC50 for assorted compounds
Test system: HepG2
Assay: Cytotoxicity against human HepG2 cells after 48 hrs by MTT assay
Format: functional, cell-based
Details: HepG2, 48 h
pIC50: −log10 of the molar value.

CSCC[C@H](N)C(=O)NCCNC(=O)[C@]12CC[C@@H](C)[C@H](C)[C@H]1C1=CC[C@@H]3[C@@]4(C)CC[C@H](OC(C)=O)C(C)(C)[C@@H]4CC[C@@]3(C)[C@]1(C)CC2; > 5.00
C[C@H]1[C@H](C)CC[C@]2(C(=O)NC(CC(=O)O)C(=O)O)CC[C@]3(C)C(=CC[C@@H]4[C@@]5(C)CC[C@H](O)C(C)(C)[C@@H]5CC[C@]43C)[C@H]12 (some centres undefined); < 4.00
C[C@H]1[C@H](C)CC[C@]2(C(=O)NC(CCC(=O)O)C(=O)O)CC[C@]3(C)C(=CC[C@@H]4[C@@]5(C)CC[C@H](O)C(C)(C)[C@@H]5CC[C@]43C)[C@H]12 (some centres undefined); < 4.00

Then this compound:
What does the data say about its pIC50? Entry: CC(=O)O[C@H]1CC[C@]2(C)[C@H]3CC=C4[C@@H]5[C@@H](C)[C@H](C)CC[C@]5(C(=O)NCCNC(=O)[C@@H](N)Cc5ccccc5)CC[C@@]4(C)[C@]3(C)CC[C@H]2C1(C)C > 5.00
